# subject-of-test: Peroxisome proliferator-activated receptor gamma (Homo sapiens, UniProt P37231)
# Sequence (P37231 whole entry): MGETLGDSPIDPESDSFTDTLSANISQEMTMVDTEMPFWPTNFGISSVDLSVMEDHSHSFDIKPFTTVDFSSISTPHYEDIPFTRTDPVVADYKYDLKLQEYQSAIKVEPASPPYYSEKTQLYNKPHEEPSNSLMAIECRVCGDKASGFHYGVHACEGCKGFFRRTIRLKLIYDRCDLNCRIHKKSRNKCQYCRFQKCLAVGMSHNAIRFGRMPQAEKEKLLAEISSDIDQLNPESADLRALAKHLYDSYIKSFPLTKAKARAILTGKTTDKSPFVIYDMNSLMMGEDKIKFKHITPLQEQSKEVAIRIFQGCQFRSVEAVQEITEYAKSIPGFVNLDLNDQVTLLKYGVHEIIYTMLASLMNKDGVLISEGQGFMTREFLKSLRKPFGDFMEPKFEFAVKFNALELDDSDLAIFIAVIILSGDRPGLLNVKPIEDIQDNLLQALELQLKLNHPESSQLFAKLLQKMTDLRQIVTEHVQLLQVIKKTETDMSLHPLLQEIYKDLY
# test-method-notes: Transactivation activity at PPARgamma (unknown origin)
Could you please report measured EC50 for the items listed next?
Give bare numbers, in µM.

For each entry beneath this line, provide reported EC50.
1. CCOC(=O)CN1C(=O)SC(Cc2ccc(C(F)(F)F)cc2)C1=O (centres undefined)
2. COC(=O)CN1C(=O)S/C(=C\c2ccc(O)cc2)C1=O
3. CCOC(=O)CN1C(=O)SC(Cc2ccc(OCCBr)cc2)C1=O (centres undefined)

Response:
9
10
12
